biological target: UniProtKB P11712; assay: CYP enzyme inhibition, fluorescent substrate; conditions: read-out: Cyp IC50 (μM) 2C9
Sequence (P11712 whole entry): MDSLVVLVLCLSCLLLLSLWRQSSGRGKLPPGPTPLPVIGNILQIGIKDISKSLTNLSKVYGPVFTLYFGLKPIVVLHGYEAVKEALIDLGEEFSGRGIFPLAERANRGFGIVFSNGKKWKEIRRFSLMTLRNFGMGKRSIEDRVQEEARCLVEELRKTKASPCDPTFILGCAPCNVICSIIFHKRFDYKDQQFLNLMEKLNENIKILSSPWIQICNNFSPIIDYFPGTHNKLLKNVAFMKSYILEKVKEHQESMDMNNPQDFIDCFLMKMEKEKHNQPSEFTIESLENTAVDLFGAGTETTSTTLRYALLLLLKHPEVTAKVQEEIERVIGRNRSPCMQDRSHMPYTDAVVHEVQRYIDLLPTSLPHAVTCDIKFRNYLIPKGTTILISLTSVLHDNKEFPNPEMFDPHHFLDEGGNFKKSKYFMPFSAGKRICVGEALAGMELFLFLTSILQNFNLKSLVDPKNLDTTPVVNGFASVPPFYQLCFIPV
experimental.readout: IC50

* Cc1cc(CNc2ccc(Cc3c[nH]c4ncc(Cl)cc34)c(F)n2)ccn1 [Compound P-2075] | < 5 µM
* Cc1cnc2[nH]cc(Cc3ccc(NCc4cnccc4C(F)(F)F)nc3F)c2c1 [Compound P-2062] | < 5 µM

Quick one: IC50 for COc1ncc(CNc2ncc(Cc3c[nH]c4ncc(C)cc34)cn2)cc1F [Compound P-2073] ? < 5 µM

What measured IC50 goes with FC(F)(F)c1ccncc1CNc1ccc(Cc2c[nH]c3ncc(Cl)cc23)cn1 [Compound P-2063] ? > 10 µM
